- measured on: AVPR2 (Homo sapiens)
- Construct: purchased Promega (in-house HiBiT-GPCR construct library, NanoBRET)
- Sequence (P30518 whole entry): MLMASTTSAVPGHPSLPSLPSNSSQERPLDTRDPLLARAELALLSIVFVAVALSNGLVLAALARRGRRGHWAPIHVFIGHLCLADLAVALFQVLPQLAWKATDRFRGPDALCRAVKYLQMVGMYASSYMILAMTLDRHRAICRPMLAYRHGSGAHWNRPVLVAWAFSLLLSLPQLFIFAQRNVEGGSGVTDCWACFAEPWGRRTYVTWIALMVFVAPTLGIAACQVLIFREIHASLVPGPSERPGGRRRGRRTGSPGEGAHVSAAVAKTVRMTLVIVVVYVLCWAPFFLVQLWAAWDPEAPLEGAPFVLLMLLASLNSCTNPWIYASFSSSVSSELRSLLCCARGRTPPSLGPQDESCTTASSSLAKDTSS
- assay name: NanoBRET screen HiBiT-AVPR2 in HEK293
- Type: binding
- cond: AVPR2; tracer 1μM
I'd appreciate it if you could supply NanoBRET Fold Response values for the items below.
Respond numerically, and do not add a unit to the figure.

Query string: # NanoBRET Fold Response lookup, item O=C(CCc1ccc2n1[B-](F)(F)[N+]1=C(c3ccc[nH]3)C=CC1=C2)NCCOCCOCCNC(=O)OCCOCCN1CCN(C2=Nc3ccccc3Sc3ccccc32)CC1
Result string: 0.93

Query string: GET /values?readout=NanoBRET Fold Response&item= CC(C)N(CC[C@H](c1ccccc1)c1cc(CCNC(=O)c2ccc(CNC(=O)CCc3ccc4n3[B-](F)(F)[N+]3=C(c5ccc[nH]5)C=CC3=C4)cc2)ccc1O)C(C)C
Result string: 1.05

Query string: Look up NanoBRET Fold Response: COc1ccccc1N1CCN(CCCCN2C(=O)c3ccc(CNC(=O)CCOCCNC(=O)c4ccc(CNC(=O)CCc5ccc6n5[B-](F)(F)[N+]5=C(c7ccc[nH]7)C=CC5=C6)cc4)cc3C2=O)CC1
Result string: 1.11

Query string: Looking for the measured NanoBRET Fold Response of CCCn1c(=O)c2[nH]c(-c3ccc(OCC(=O)NCCNC(=O)CCOCCNC(=O)c4ccc(CNC(=O)CCc5ccc6n5[B-](F)(F)[N+]5=C(c7ccc[nH]7)C=CC5=C6)cc4)cc3)nc2n(CCC)c1=O , can you help?
Result string: 0.91

Query string: Endpoint output: NanoBRET Fold Response of O=C(CCOCCOCCOCCOCCNC(=O)CCc1ccc2n1[B-](F)(F)[N+]1=C(c3ccc[nH]3)C=CC1=C2)NCCCN1CCN(C2=Nc3ccccc3Oc3ccc(Cl)cc32)CC1 . Value?
Result string: 1.05
